# testName: CHI Log D procedure
# Type: physicochemical
# measurementSetup: pH 7.4, CHI Log D
Tick Y if chromatographic logD is 2 or greater. Tick N if chromatographic logD is less than 2.

For this molecule, is measured chromatographic logD 2 or higher? CC(=O)N1CCC[C@]12CC=CCCCC1(CCCC=CCCCCCC[C@@](C)(C(=O)NC(Cc3cncn3C)C(=O)N[C@@H](Cc3csc4ccccc34)C(=O)N[C@@H](CCC(N)=O)C(N)=O)NC(=O)[C@H](CC(N)=O)NC(=O)[C@H](Cc3ccccc3)NC(=O)[C@H](C)NC(=O)[C@H](C)NC(=O)[C@H](CCC(=O)O)NC(=O)[C@H](CC(=O)O)NC1=O)NC(=O)[C@H](C)NC(=O)[C@H](CC(=O)O)NC2=O (stereo partly drawn)
N

For this molecule, is measured chromatographic logD 2 or higher? CC(=O)N1CCC[C@]12CC=CCCCC1(CCCC=CCCCCCC[C@@](C)(C(=O)N[C@@H](Cc3ccc(C#N)cc3)C(=O)N[C@@H](Cc3csc4ccccc34)C(=O)N[C@@H](CCC(N)=O)C(N)=O)NC(=O)[C@H](C(C)C)NC(=O)[C@H](Cc3ccccc3)NC(=O)[C@H](C)NC(=O)[C@H](C)NC(=O)[C@H](CC(=O)O)NC(=O)[C@H](CC(=O)O)NC1=O)NC(=O)[C@H](C)NC(=O)[C@H](CC(=O)O)NC2=O (stereo partly drawn)
Y

For this molecule, is measured chromatographic logD 2 or higher? COCCOCCOCCOCCOCCOCCC(=O)NCCCC[C@H](NC(=O)[C@H](CCC(N)=O)NC(=O)[C@H](Cc1csc2ccccc12)NC(=O)[C@H](Cc1ccsc1)NC(=O)[C@]12CCN(C1)C(=O)OCCCC=CCCCC1(CCCC=CC[C@]3(CCCN3C(C)=O)C(=O)N[C@@H](CC(=O)O)C(=O)N[C@@H](CC(C)(C)C)C(=O)N1)C(=O)N[C@@H](CC(=O)O)C(=O)N[C@@H](CC(=O)O)C(=O)N[C@@H](C)C(=O)N[C@@H](C)C(=O)N[C@@H](Cc1ccccc1)C(=O)N[C@@H](CC(N)=O)C(=O)N2)C(N)=O (stereo partly drawn)
N

For this molecule, is measured chromatographic logD 2 or higher? CC(=O)N[C@@H](Cc1ccccc1)C(=O)N[C@@H](CC(=O)O)C(=O)N[C@@H](C)C(=O)N[C@]1(C)CCCC=CCOC(=O)N(C)CC[C@@](C)(C(=O)N[C@@H](Cc2ccccc2)C(=O)N[C@@H](Cc2c[nH]c3ccccc23)C(=O)N[C@@H](CCC(N)=O)C(N)=O)NC(=O)[C@H](C(C)C)NC(=O)[C@H](Cc2ccccc2)NC(=O)[C@H](C)NC(=O)[C@H](C)NC(=O)[C@H](CC(=O)O)NC(=O)[C@H](CC(=O)O)NC1=O
N

***
For this molecule, is measured chromatographic logD 2 or higher? COc1ccccc1C[C@H](NC(=O)[C@]12CCN(C1)C(=O)OCCCC=CCCCC1(CCCC=CC[C@]3(CCCN3C(C)=O)C(=O)N[C@@H](CC(=O)O)C(=O)N[C@@H](CC(C)(C)C)C(=O)N1)C(=O)N[C@@H](CC(=O)O)C(=O)N[C@@H](CC(=O)O)C(=O)N[C@@H](C)C(=O)N[C@@H](C)C(=O)N[C@@H](Cc1ccccc1)C(=O)N[C@@H](CC(N)=O)C(=O)N2)C(=O)N[C@@H](Cc1csc2ccccc12)C(=O)N[C@@H](Cc1c[nH]cn1)C(N)=O (stereo partly drawn)
Y

For this molecule, is measured chromatographic logD 2 or higher? C#CCOCCOCCOCCOCCC(=O)NCCCC[C@H](NC(=O)[C@H](CCC(N)=O)NC(=O)[C@H](Cc1csc2ccccc12)NC(=O)[C@H](Cc1ccsc1)NC(=O)[C@]12CCN(C1)C(=O)OCCCC=CCCCC1(CCCC=CC[C@]3(CCCN3C(C)=O)C(=O)N[C@@H](CC(=O)O)C(=O)N[C@@H](CC(C)(C)C)C(=O)N1)C(=O)N[C@@H](CC(=O)O)C(=O)N[C@@H](CC(=O)O)C(=O)N[C@@H](C)C(=O)N[C@@H](C)C(=O)N[C@@H](Cc1ccccc1)C(=O)N[C@@H](CC(N)=O)C(=O)N2)C(N)=O (stereo partly drawn)
Y

For this molecule, is measured chromatographic logD 2 or higher? CC(=O)N1CCC[C@]12CC=CCCCC1(CCCC=CCCCCCC[C@@](C)(C(=O)N[C@@H](Cc3ccccc3)C(=O)N[C@@H](Cc3c[nH]c4ccccc34)C(=O)N[C@@H](CCC(N)=O)C(N)=O)NC(=O)[C@H](C(C)C)NC(=O)[C@H](Cc3ccccc3)NC(=O)[C@H](C)NC(=O)[C@H](C)NC(=O)[C@H](CCC(=O)O)NC(=O)[C@H](CC(=O)O)NC1=O)NC(=O)[C@H](C)NC(=O)[C@H](Cc1cccc(F)c1)NC2=O (stereo partly drawn)
Y

For this molecule, is measured chromatographic logD 2 or higher? CC[C@H](C)[C@@H]1NC(=O)[C@H](CC(=O)O)NC(=O)[C@]2(CC=CCCCC3(CCCC=CCCCCCC[C@@](C)(C(=O)N[C@@H](Cc4ccccc4)C(=O)N[C@@H](Cc4csc5ccccc45)C(=O)N[C@@H](CCC(N)=O)C(N)=O)NC(=O)[C@H](CCC(N)=O)NC(=O)[C@H](C(c4ccccc4)c4ccccc4)NC(=O)[C@H](C)NC(=O)[C@H](C)NC(=O)[C@H](CCC(=O)O)NC(=O)[C@H](CC(=O)O)NC3=O)NC1=O)CCCN2C(C)=O (stereo partly drawn)
Y
